Tested on: human Factor XI mRNA
assay overview: Antisense inhibition in HepG2 cells by microwalk gapmers, 75 nM, lipofectin (Example 3)
Type: cell-based
conditions: HepG2 cells, 75 nM, oligonucleotides targeted to nucleobases 1275 to 1318 of SEQ ID NO: 1
In the oligonucleotide strings, read from the 5' end, every base follows the letter of its sugar. An asterisk marks phosphorothioate; unmarked linkages are phosphodiester. Other units and linkages are bracketed, terminal groups are in braces. A string of capitals states the bases alone. e = 2'-O-(2-methoxyethyl) (MOE); [5mC] = 5-methylcytosine; d = 2'-deoxy (DNA)
Given measured % inhibition of human Factor XI mRNA levels, output Yes if it is greater than or equal to 90% and No if not.

[
  {
    "substance": "416927 (antisense eT*eT*eG*dG*dT*dG*d[5mC]*dA*d[5mC]*dA*dG*dT*dT*dT*d[5mC]*dT*dG*eG*e[5mC]*eA) [compound 416927]",
    "class assignment": "No"
  },
  {
    "substance": "417015 (antisense eA*eG*d[5mC]*dG*dG*dA*d[5mC]*dG*dG*d[5mC]*dA*dT*dT*dG*dG*eT*eG*e[5mC]*eA*e[5mC]) [compound 417015]",
    "class assignment": "No"
  }
]

Incoming: Please check the record 416858 (antisense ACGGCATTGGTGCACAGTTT; 5-10-5 gapmer, wing sugar chemistry not given here, further chemistry not given here) [compound 416858] and state if its % inhibition of human Factor XI mRNA levels is at or above 90%.
Outgoing: Yes

Incoming: Please check the record 416944 (antisense eA*e[5mC]*eT*dG*dG*d[5mC]*dA*dG*d[5mC]*dG*dG*dA*d[5mC]*dG*dG*d[5mC]*dA*eT*eT*eG) [compound 416944] and state if its % inhibition of human Factor XI mRNA levels is at or above 90%.
Outgoing: No

Incoming: Please check the record 417011 (antisense eG*eA*d[5mC]*dG*dG*d[5mC]*dA*dT*dT*dG*dG*dT*dG*d[5mC]*dA*e[5mC]*eA*eG*eT*eT) [compound 417011] and state if its % inhibition of human Factor XI mRNA levels is at or above 90%.
Outgoing: No

---

In this section we review reported Total urine protein values for a set of sequences.
assay overview: Tolerability in Sprague-Dawley rats: kidney function (Example 23)
Assay type: in vivo
conditions: total urine samples
Kindly write the number and append the unit.

Worked set:
[
  {
    "residue sequence": "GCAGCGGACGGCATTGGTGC (antisense; all C 5-methyl, all phosphorothioate, sugars by position not given here; MOE gapmer, 5-10-5) [ISIS 412225, 5-10-5 MOE gapmer]",
    "Total urine protein": "209 mg/dL"
  },
  {
    "residue sequence": "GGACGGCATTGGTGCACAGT (antisense; all C 5-methyl, all phosphorothioate, sugars by position not given here; MOE gapmer, 5-10-5) [ISIS 413482, 5-10-5 MOE gapmer]",
    "Total urine protein": "157 mg/dL"
  },
  {
    "residue sequence": "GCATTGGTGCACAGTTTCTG (antisense; all C 5-methyl, all phosphorothioate, sugars by position not given here; MOE gapmer, 5-10-5) [ISIS 412224, 5-10-5 MOE gapmer]",
    "Total urine protein": "171 mg/dL"
  },
  {
    "residue sequence": "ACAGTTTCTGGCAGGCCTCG (antisense; all C 5-methyl, all phosphorothioate, sugars by position not given here; MOE gapmer, 5-10-5) [ISIS 412223, 5-10-5 MOE gapmer]",
    "Total urine protein": "224 mg/dL"
  }
]

We next turn to a different sequence, shown below.
Incoming: Fill in reported Total urine protein for this entry: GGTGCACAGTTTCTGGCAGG (all C 5-methyl, all phosphorothioate, sugars by position not given here; MOE gapmer) [ISIS 413481, 5-10-5 MOE gapmer]
Outgoing: 148 mg/dL

Ref: patent US20120083522A1
